Each item that follows carries a reported Kb.
Biological target: LHRH (Rattus norvegicus)
Construct: endogenous in cells; host or cells: rat pituitary cells (own knowledge of the cited Haviv 1989 method)
Sequence (P30969 whole entry): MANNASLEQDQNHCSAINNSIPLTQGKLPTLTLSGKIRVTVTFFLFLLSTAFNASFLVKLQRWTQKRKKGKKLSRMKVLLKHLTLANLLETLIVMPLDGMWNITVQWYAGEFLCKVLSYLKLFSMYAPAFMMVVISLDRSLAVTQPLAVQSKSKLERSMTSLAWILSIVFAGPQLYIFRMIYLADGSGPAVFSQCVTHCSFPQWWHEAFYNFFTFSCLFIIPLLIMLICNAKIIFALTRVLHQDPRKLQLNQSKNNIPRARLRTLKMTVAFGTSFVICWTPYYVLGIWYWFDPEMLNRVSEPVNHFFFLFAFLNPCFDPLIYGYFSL
Test: in vitro test for LHRH antagonist potency (pA2)
Format: cell-based
Settings: negative logarithm of the antagonist concentration required to shift the response curve produced by the agonist leuprolide to two-fold higher concentration
Non-standard residues stand in square brackets, D forms with d. Residues, ends and D or L forms follow the SMILES beside them. Groups on a side chain read outwards from the residue. *: point of attachment. Shikimoyl = O=C(C1=C[C@@H](O)[C@@H](O)[C@H](O)C1)*; dPhe(4-Cl) = N[C@H](Cc1ccc(Cl)cc1)C(=O)O; d2Nal = N[C@H](Cc1ccc2ccccc2c1)C(=O)O; Acetyl(3-pyridyl) = O=C(Cc1cccnc1)*; Lys(iPr) = CC(C)NCCCC[C@H](N)C(=O)O; NMeY = CN[C@@H](Cc1ccc(O)cc1)C(=O)O; dCit = NC(=O)NCCC[C@@H](N)C(=O)O; hArg = N=C(N)NCCCC[C@H](N)C(=O)O; d3Pal = N[C@H](Cc1cccnc1)C(=O)O; Isonicotinoyl = O=C(c1ccncc1)*; Nicotinoyl = O=C(c1cccnc1)*; 2Furoyl = O=C(c1ccco1)*; Aze = O=C(O)[C@@H]1CCN1; X1 = O=C([C@@H]1CCCO1)*; GABA = NCCCC(=O)O; azaGly = NNC(=O)O
Attribute measured: Kb (pM)

{"Compound": "CC(C)C[C@H](NC(=O)[C@@H](CCCNC(N)=O)NC(=O)[C@H](Cc1ccc(O)cc1)N(C)C(=O)[C@H](CO)NC(=O)[C@@H](Cc1cccnc1)NC(=O)[C@@H](Cc1ccc(Cl)cc1)NC(=O)[C@@H](Cc1ccc2ccccc2c1)NC(=O)Cc1cccnc1)C(=O)N[C@@H](CCCNC(=N)N)C(=O)N1CCC[C@H]1C(=O)N[C@H](C)C(N)=O [Example 78h] ({Acetyl(3-pyridyl)}-[d2Nal][dPhe(4-Cl)][d3Pal]S[NMeY][dCit]LRP[dA]-NH2)", "System": "LHRH (Rattus norvegicus)", "Numeric value": 31.6}
{"Compound": "CC(C)C[C@H](NC(=O)[C@@H](CCCCNC(=O)NNC(=O)c1cccnc1)NC(=O)[C@H](Cc1ccc(O)cc1)N(C)C(=O)[C@H](CO)NC(=O)[C@@H](Cc1cccnc1)NC(=O)[C@@H](Cc1ccc(Cl)cc1)NC(=O)[C@@H](Cc1ccc2ccccc2c1)NC(=O)C1=C[C@@H](O)[C@@H](O)[C@H](O)C1)C(=O)N[C@@H](CCCCNC(C)C)C(=O)N1CCC[C@H]1C(=O)N[C@H](C)C(N)=O [Example 30b] (Shikimoyl-[d2Nal][dPhe(4-Cl)][d3Pal]S[NMeY][dK]([azaGly-Nicotinoyl])L[Lys(iPr)]P[dA]-NH2)", "System": "LHRH (Rattus norvegicus)", "Numeric value": 29.5}
{"Compound": "CC(C)C[C@H](NC(=O)[C@@H](CCCCNC(=O)c1cccnc1)NC(=O)[C@H](Cc1ccc(O)cc1)N(C)C(=O)[C@H](CO)NC(=O)[C@@H](Cc1cccnc1)NC(=O)[C@@H](Cc1ccccc1)NC(=O)[C@@H](Cc1ccc2ccccc2c1)NC(=O)CNC(=O)[C@@H]1CCCO1)C(=O)N[C@@H](CCCCNC(C)C)C(=O)N1CCC[C@H]1C(=O)N[C@H](C)C(N)=O [Example 94] (X1-G[d2Nal][dF][d3Pal]S[NMeY][dK](Nicotinoyl)L[Lys(iPr)]P[dA]-NH2)", "System": "LHRH (Rattus norvegicus)", "Numeric value": 8.32}
{"Compound": "CC(C)C[C@H](NC(=O)[C@@H](CCCCNC(=O)C1=C[C@@H](O)[C@@H](O)[C@H](O)C1)NC(=O)[C@H](Cc1ccc(O)cc1)N(C)C(=O)[C@H](CO)NC(=O)[C@@H](Cc1cccnc1)NC(=O)[C@@H](Cc1ccc(Cl)cc1)NC(=O)[C@@H](Cc1ccc2ccccc2c1)NC(=O)CNC(=O)c1ccco1)C(=O)N[C@@H](CCCCNC(=N)N)C(=O)N1CCC[C@H]1C(=O)N[C@H](C)C(N)=O [Example 25c] (2Furoyl-G[d2Nal][dPhe(4-Cl)][d3Pal]S[NMeY][dK](Shikimoyl)L[hArg]P[dA]-NH2)", "System": "LHRH (Rattus norvegicus)", "Numeric value": 1.7}
{"Compound": "CC(C)C[C@H](NC(=O)[C@@H](CCCCNC(=O)c1cccnc1)NC(=O)[C@H](Cc1ccc(O)cc1)N(C)C(=O)[C@H](CO)NC(=O)[C@@H](Cc1cccnc1)NC(=O)[C@@H](Cc1ccc(Cl)cc1)NC(=O)[C@@H](Cc1ccc2ccccc2c1)NC(=O)CCCNC(=O)[C@@H]1CCCO1)C(=O)N[C@@H](CCCCNC(C)C)C(=O)N1CCC[C@H]1C(=O)N[C@H](C)C(N)=O [Example 97] ({X1-GABA}-[d2Nal][dPhe(4-Cl)][d3Pal]S[NMeY][dK](Nicotinoyl)L[Lys(iPr)]P[dA]-NH2)", "System": "LHRH (Rattus norvegicus)", "Numeric value": 33.9}
{"Compound": "CC(C)C[C@H](NC(=O)[C@@H](CCCCNC(=O)c1cccnc1)NC(=O)[C@H](Cc1ccc(O)cc1)N(C)C(=O)[C@H](CO)NC(=O)[C@@H](Cc1cccnc1)NC(=O)[C@@H](Cc1ccc(Cl)cc1)NC(=O)[C@@H](Cc1ccc2ccccc2c1)NC(=O)CNC(=O)[C@@H]1CCCO1)C(=O)N[C@@H](CCCCNC(C)C)C(=O)N1CCC[C@H]1C(=O)N[C@@H](C)C(N)=O", "System": "LHRH (Rattus norvegicus)", "Numeric value": 12.6}
{"Compound": "CC(C)C[C@H](NC(=O)[C@@H](CCCCNC(=O)c1cccnc1)NC(=O)[C@H](Cc1ccc(O)cc1)N(C)C(=O)[C@H](CO)NC(=O)[C@@H](Cc1cccnc1)NC(=O)[C@@H](Cc1ccc(Cl)cc1)NC(=O)[C@@H](Cc1ccc2ccccc2c1)NC(=O)NNC(=O)c1ccncc1)C(=O)N[C@@H](CCCCNC(C)C)C(=O)N1CCC[C@H]1C(=O)N[C@H](C)C(N)=O [Example 37d] (Isonicotinoyl-[azaGly][d2Nal][dPhe(4-Cl)][d3Pal]S[NMeY][dK](Nicotinoyl)L[Lys(iPr)]P[dA]-NH2)", "System": "LHRH (Rattus norvegicus)", "Numeric value": 126}
{"Compound": "CC(C)C[C@H](NC(=O)[C@@H](CCCCNC(=O)c1cccnc1)NC(=O)[C@H](Cc1ccc(O)cc1)NC(=O)[C@H](CO)NC(=O)[C@@H](Cc1cccnc1)NC(=O)[C@@H](Cc1ccc(Cl)cc1)NC(=O)[C@@H](Cc1ccc2ccccc2c1)NC(=O)C1=C[C@@H](O)[C@@H](O)[C@H](O)C1)C(=O)N[C@@H](CCCCNC(C)C)C(=O)N1CCC[C@H]1C(=O)N[C@H](C)C(N)=O [Example 75] (Shikimoyl-[d2Nal][dPhe(4-Cl)][d3Pal]SY[dK](Nicotinoyl)L[Lys(iPr)]P[dA]-NH2)", "System": "LHRH (Rattus norvegicus)", "Numeric value": 11.2}
{"Compound": "CC(C)C[C@H](NC(=O)[C@@H](CCCCNC(=O)C1=C[C@@H](O)[C@@H](O)[C@H](O)C1)NC(=O)[C@H](Cc1ccc(O)cc1)N(C)C(=O)[C@H](CO)NC(=O)[C@@H](Cc1cccnc1)NC(=O)[C@@H](Cc1ccc(Cl)cc1)NC(=O)[C@@H](Cc1ccc2ccccc2c1)NC(=O)CNC(=O)C1=C[C@@H](O)[C@@H](O)[C@H](O)C1)C(=O)N[C@@H](CCCNC(=N)N)C(=O)N1CC[C@H]1C(=O)N[C@H](C)C(N)=O [Example 19] (Shikimoyl-G[d2Nal][dPhe(4-Cl)][d3Pal]S[NMeY][dK](Shikimoyl)LR[Aze][dA]-NH2)", "System": "LHRH (Rattus norvegicus)", "Numeric value": 40.7}

Origin of values: patent US5502035A
